// reported Kd per item
target: T1, recombinant GPRC5D antigen (Human GPRC5D protein-Flag-His tag (51.8KD) ACRO Cat: GPD-H52D3) (human, UniProt Q9NZD1 1-345, limits assumed); assay: BLI (Octet R8), recombinant GPRC5D antigen
T1 construct: Bought protein; also called CPRG5D; not shown: Flag-His tag
T1 sequence (Q9NZD1 whole entry): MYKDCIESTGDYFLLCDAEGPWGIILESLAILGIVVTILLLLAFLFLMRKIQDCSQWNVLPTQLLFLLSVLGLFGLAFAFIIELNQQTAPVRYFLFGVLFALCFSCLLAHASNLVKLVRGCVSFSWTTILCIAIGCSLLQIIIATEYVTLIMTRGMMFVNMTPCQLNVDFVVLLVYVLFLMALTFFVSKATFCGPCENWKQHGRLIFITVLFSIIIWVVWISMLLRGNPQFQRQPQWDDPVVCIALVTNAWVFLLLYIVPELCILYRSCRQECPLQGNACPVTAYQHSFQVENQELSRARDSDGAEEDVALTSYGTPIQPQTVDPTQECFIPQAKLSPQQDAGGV

Study these solved cases before continuing.
- binder: "humanized antibody 22Mono4DN4 (antibody, human IgG1, V domains shown) VH: ELVQSGAEVKKPGSSVKVSCKASGYPFTNYWMHWVRQAPGQGLEWIGEINPSNGRTNYNEKFKSRATLTLDKSTSTAYMELSSLRSEDTAVYYCARGFAYWGQGTLVTVSS VL: EIVLTQSPATLSLSPGERATLSCSASSSVSFMHWYQQKPGQAPRRWIYDTTKLASGVPARFSGSGSGTDYTLTISSLEPEDFAVYYCQQWNSHPLTFGQGTKVEIK"
  Kd: "16.9 nM"
- binder: "humanized antibody 22Mono3L7F (antibody, human IgG1, V domains shown, also called 22monoO3L7) VH: EVTLKESGPVLVKPTETLTLTCTASGYPFTNYWMHWVRQPPGKALEWIGEINPSNGRTNYNEKFKSRATLSLDKSKSQAVLTMTNMDPVDTATYYCARGFAYWGQGTLVTVSS VL: EIVLTQSPATLSLSPGERATLSCSASSSVSFMHWYQQKPGQAPRRWIYDTTKLASGIPARFSGSGSGTDYTLTISSLEPEDFAVYYCQQWNSHPLTFGQGTKLEIK"
  Kd: "25.6 nM"
- binder: "humanized antibody 22Mono5UQY (antibody, human IgG1, V domains shown, also called 22MonoSUQY) VH: QVQLQESGPGLVKPSETLSLTCTASGYPFTNYWMHWVRQPPGKGLEWIGEINPSNGRTNYNEKFKSRATLSLDKSKNQASLNLDSVSAADTAIYYCARGFAYWGKGSTVTVSS VL: AIQLTQSPSSLSASVGDRVTITCSASSSVSFMHWYQQKPGKAPKRWIYDTTKLASGVPSRFSGSGSGTDYTFTISSLQPEDIATYYCQQWNSHPLTFGPGTKVDIK"
  Kd: "5.67 nM"

Then this binder:
**Q:** Quote Kd reported for humanized antibody 22Mono5JO4 (antibody, human IgG1, V domains shown) VH: QVQLVQSGAEVKKPGSSVKVSCRASGYPFTNYWMHWVRQAPGQGLEWIGEINPSNGRTNYNEKFKSRATLTLDKLTSTAYMELSSLTSEDTALYYCARGFAYWGQGTLVTVSS VL: EIVLTQSPGTLSLSPGERATLSCSASSSVSFMHWYQQKPGQAPRRWIYDTTKLASGIPDRFSGSGSGTDYTLTISRLEPEDFAVYYCQQWNSHPLTFGQGTTVEIK please.
**A:** 0.787 nM
